Values compiled from the supplement of paper PMC9170038.

- System: K4 kissing-loop RNA reporter;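 also: bound reporter read as fluorescence of individual clusters on recovered sequencing chips by microscopy, with normalized cluster intensities fitted with a binding model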
- Assay comment: apparent KD of K4 kissing-loop reporter; higher = weaker reporter binding
- Assay setup: Eterna round: R107; input ligand: FMN 200 uM

{"Entry sequence": "AGGGUUAAUUAGUCUUUUUUCACAUUAAGUCAGGAUAUCGUAUUUUCGAGAAGGGACACAUGCUAGUGAUGUUAGCUAUUUCCCA [#02 K4 FMN A Exclusion]", "apparent KD of K4 kissing-loop reporter (nM)": 77.3}
{"Entry sequence": "AAAAUAAAUAGCAGUCAUGGAGUGAUGUUCCGAGGACCGGUACGGCCGCCACUCGACCAUCAUAAGAUGGAAUGGCGAGACUGCA [#SwitchBubble 22 #K4Early]", "apparent KD of K4 kissing-loop reporter (nM)": 252}
{"Entry sequence": "AACUGUCAAGGACAACAUUACUGAGGUGAUACCAGCAUCGAAAGAUGCCCUUGGCAGCGCCAACUUGCAGUGAUGUUGCAAGUAA [BrourdMod 1 - Jieux - Exclusion - Theophylline A]", "apparent KD of K4 kissing-loop reporter (nM)": 169}
{"Entry sequence": "AACCACUCGUUACAUCACUAUCGAGUGGAACGAGGACCGGUACGGCCGCCACUCGAUAACUUGCAGUGAUGUUGCAAGUAAGAAU [(T)''-(K)'-(T)'-(T1)-(T2)-(K1)-(K2)_Design9]", "apparent KD of K4 kissing-loop reporter (nM)": 542}
{"Entry sequence": "CCGCUACCCUCAGGAUAUUAAAUAUUAGUGAUGUUAAUAAACCGAUGGCGAAAGCCAUCGGUAUGUUAAGAAGGGAGGGUAGCGG", "apparent KD of K4 kissing-loop reporter (nM)": 138}
{"Entry sequence": "CCUAUCUCAUACGAUACCAGUCUAUUAAAACGAGUGAUGUUCGAAUAUUUGCCAUAUAAUGACCCUUGGCAGCGUAUGGGAUAGG [Ex Theophylline B K4 9]", "apparent KD of K4 kissing-loop reporter (nM)": 221}
{"Entry sequence": "CAGAACUUGUAUACAGGGCAUGCCAGAGAUACCAGUCAAAUGGAAGGCCCUUGGCAGCUCAGGCGAGUGAUGUUCGCAGGCUGAC [Exclusion Theophylline A GF 19]", "apparent KD of K4 kissing-loop reporter (nM)": 140}
{"Entry sequence": "GGAGUUACCUGGGAUACCAGUCGGAGUCCCAGAGCUCAGAGUGAUGUUCUGGGAUGUUUCGGCCCUUGGCAGCUCUGGGACUCCC [#2 Exclusion - Theophylline B Attempt #12 (HarryS)]", "apparent KD of K4 kissing-loop reporter (nM)": 535}
{"Entry sequence": "AAAGUUGCAAGUGAUACCAGACGAGUGAAGGGAAGUAAUUAAUUAGGAGUGAUGUUCCGCGUCCCUUGGCAGCACUUUGUAAUUU [Exclusion Theophylline B GF 25]", "apparent KD of K4 kissing-loop reporter (nM)": 155}
{"Entry sequence": "CGCAGUGAUGUUGCUAUUAUUCUUGGUUAACGAGGACCGGUACGGCCGCCACUCGAUUUCUAUCUAAUCCAGUGUUUUUUUGAGU [JR_ExcTryptoA_Sub003]", "apparent KD of K4 kissing-loop reporter (nM)": 301}
{"Entry sequence": "GGUGUUGUUUGUGCUGUUUUCUUUGUUUCUCGAGGACCGGUACGGCCGCCACUCGAGUGAUGUUUGGGUAGCGAUGUUUGUUAGU [Bdazzled - #2 - Exc. Tryptophan A]", "apparent KD of K4 kissing-loop reporter (nM)": 463}
